- METHOD: Clearance in human plasma at 2.5 mg
- Assay type: ADME, cell-free
MEASURED_PARAMETER: clearance (mL/min)
Numbers only, in mL/min.

Task item: Give clearance for the following compound: O=C(N[C@@H]1CC[C@@H](c2cccc(F)c2F)CN(CC(F)(F)F)C1=O)N1CCC(n2c(=O)[nH]c3ncccc32)CC1
Reply: 200

----------
- METHOD: Terminal half life in human at 2.5 mg
- Assay type: ADME
- CONDITION_NOTES: read-out: beta t1/2 (converted)
MEASURED_PARAMETER: half-life (h)
Answers are plain numbers, in h.

Task item: Item O=C(N[C@@H]1CC[C@@H](c2cccc(F)c2F)CN(CC(F)(F)F)C1=O)N1CCC(n2c(=O)[nH]c3ncccc32)CC1 : provide half-life
Reply: 2.5
